These measurements were taken from ChEMBL document CHEMBL1131686.

Consider molecules characterized by their IC50 with Epidermal growth factor receptor (Homo sapiens).
Sequence (P00533 whole entry): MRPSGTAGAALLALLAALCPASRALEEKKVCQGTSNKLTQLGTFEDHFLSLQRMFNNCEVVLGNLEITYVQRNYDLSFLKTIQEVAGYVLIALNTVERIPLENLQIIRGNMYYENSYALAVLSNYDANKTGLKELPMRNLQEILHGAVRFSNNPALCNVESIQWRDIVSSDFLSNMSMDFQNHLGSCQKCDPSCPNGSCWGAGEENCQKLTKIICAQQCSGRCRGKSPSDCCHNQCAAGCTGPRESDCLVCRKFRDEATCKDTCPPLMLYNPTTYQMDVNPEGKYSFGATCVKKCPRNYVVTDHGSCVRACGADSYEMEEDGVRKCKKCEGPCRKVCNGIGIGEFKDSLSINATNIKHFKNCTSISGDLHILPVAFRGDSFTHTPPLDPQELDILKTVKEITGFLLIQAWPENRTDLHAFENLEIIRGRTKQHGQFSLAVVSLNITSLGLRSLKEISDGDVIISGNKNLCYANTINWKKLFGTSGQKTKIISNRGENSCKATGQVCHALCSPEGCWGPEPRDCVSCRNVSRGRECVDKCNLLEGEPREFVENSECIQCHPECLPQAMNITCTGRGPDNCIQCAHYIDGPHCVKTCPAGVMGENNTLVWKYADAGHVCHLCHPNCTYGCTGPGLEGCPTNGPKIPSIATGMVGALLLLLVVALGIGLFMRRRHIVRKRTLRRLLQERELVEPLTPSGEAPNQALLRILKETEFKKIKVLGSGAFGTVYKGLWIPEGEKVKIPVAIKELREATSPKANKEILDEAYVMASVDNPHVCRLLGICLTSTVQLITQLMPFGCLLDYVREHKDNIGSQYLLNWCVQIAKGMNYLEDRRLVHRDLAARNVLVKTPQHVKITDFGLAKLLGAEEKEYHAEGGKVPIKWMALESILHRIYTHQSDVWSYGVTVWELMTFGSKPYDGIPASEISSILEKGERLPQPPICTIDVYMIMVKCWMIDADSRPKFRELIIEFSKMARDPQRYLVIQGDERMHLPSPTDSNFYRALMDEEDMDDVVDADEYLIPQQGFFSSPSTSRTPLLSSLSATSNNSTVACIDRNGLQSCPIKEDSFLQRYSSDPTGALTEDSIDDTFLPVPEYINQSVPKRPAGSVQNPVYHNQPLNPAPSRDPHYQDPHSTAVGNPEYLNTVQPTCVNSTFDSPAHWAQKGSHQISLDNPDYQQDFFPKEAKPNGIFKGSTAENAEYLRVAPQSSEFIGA

Example entries and their recorded answers appear below.
{"molecule": "O=C1NC(=O)c2c1c1c3cccc(O)c3[nH]c1c1c2c2cccc(O)c2n1C1OC(CO)C(O)C(O)C1O (configuration not stated)", "result": "90 µM"}
{"molecule": "O=C(CO)NN1C(=O)c2c(c3c4cccc(O)c4n(C4OC(CO)C(O)C(O)C4O)c3c3[nH]c4c(O)cccc4c23)C1=O (configuration not stated)", "result": "> 200 µM"}
{"molecule": "NN1C(=O)c2c(c3c4cccc(O)c4n(C4OC(CO)C(O)C(O)C4O)c3c3[nH]c4c(O)cccc4c23)C1=O (configuration not stated)", "result": "> 200 µM"}
{"molecule": "CN(C)CC(=O)NN1C(=O)c2c(c3c4cccc(O)c4n(C4OC(CO)C(O)C(O)C4O)c3c3[nH]c4c(O)cccc4c23)C1=O (configuration not stated)", "result": "> 200 µM"}
{"molecule": "CCCNN1C(=O)c2c(c3c4cccc(O)c4n(C4OC(CO)C(O)C(O)C4O)c3c3[nH]c4c(O)cccc4c23)C1=O (configuration not stated)", "result": "59 µM"}
{"molecule": "CCC(=O)NN1C(=O)c2c(c3c4cccc(O)c4n(C4OC(CO)C(O)C(O)C4O)c3c3[nH]c4c(O)cccc4c23)C1=O (configuration not stated)", "result": "> 200 µM"}
{"molecule": "O=C(Nc1ccccc1)NN1C(=O)c2c(c3c4cccc(O)c4n(C4OC(CO)C(O)C(O)C4O)c3c3[nH]c4c(O)cccc4c23)C1=O (configuration not stated)", "result": "95 µM"}
{"molecule": "O=C1c2c(c3c4cccc(O)c4n(C4OC(CO)C(O)C(O)C4O)c3c3[nH]c4c(O)cccc4c23)C(=O)N1NCc1cccc(O)c1 (configuration not stated)", "result": "> 200 µM"}

Report IC50 for each item below.
1. CN(C)N1C(=O)c2c(c3c4cccc(O)c4n(C4OC(CO)C(O)C(O)C4O)c3c3[nH]c4c(O)cccc4c23)C1=O (configuration not stated)
2. O=C(O)c1ccc(NN2C(=O)c3c(c4c5cccc(O)c5n(C5OC(CO)C(O)C(O)C5O)c4c4[nH]c5c(O)cccc5c34)C2=O)cc1 (configuration not stated)
3. O=C1c2c(c3c4cccc(O)c4n(C4OC(CO)C(O)C(O)C4O)c3c3[nH]c4c(O)cccc4c23)C(=O)N1NCCO (configuration not stated)
4. CCNN1C(=O)c2c(c3c4cccc(O)c4n(C4OC(CO)C(O)C(O)C4O)c3c3[nH]c4c(O)cccc4c23)C1=O (configuration not stated)
5. N#CCCNN1C(=O)c2c(c3c4cccc(O)c4n(C4OC(CO)C(O)C(O)C4O)c3c3[nH]c4c(O)cccc4c23)C1=O (configuration not stated)

Response:
> 200 µM
90 µM
> 200 µM
> 200 µM
> 200 µM
